# measured_target: T1, human recombinant CD117 (c-Kit) from Sino Biological (Catalog No. 11996-H08H) (human, UniProt P10721 26-524)
# T1 construct: also called soluble antigen
# T1 sequence (P10721 26-524 limits assumed): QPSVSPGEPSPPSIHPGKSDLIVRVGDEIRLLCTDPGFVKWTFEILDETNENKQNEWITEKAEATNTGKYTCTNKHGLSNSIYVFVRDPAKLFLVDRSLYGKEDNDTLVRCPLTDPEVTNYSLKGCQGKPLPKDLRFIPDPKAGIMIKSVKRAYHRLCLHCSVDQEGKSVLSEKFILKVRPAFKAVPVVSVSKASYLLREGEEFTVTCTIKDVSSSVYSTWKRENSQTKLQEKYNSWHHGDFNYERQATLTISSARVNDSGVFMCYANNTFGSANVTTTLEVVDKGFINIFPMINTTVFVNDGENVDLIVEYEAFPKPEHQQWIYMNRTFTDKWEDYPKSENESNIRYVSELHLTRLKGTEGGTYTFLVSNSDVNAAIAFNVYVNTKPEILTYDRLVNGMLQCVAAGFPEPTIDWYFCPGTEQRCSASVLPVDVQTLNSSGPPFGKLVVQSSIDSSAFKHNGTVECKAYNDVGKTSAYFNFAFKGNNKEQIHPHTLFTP
# procedure_details: BLI Octet, IgG on anti-human Fc sensor, soluble CD117, 1:1 fit
Item-by-item account of kon
Numbers only; they are read as M⁻¹ s⁻¹.

>>> observed_measurement("HC5 LC3 (antibody, V domains shown, IgG; also called VH5/VL3) VH: EVQLVQSGAEVKKPGESLKISCKGSGYTFTSYNMHWVRQMPGKGLEWMGVIYSGNADTSYNQKFKGQVTISADKSISTAYLQWSSLKASDTAMYYCARERDTRFGNWGQGTLVTVSA VL: DIVMTQSPSTLSASVGDRVTITCRASESVDIYGSSFMHWYQQKPGQPPKLLIYLASNLESGVPSRFSGSGSGTEFTLTISSLEADDVATYYCQQNNEDPYTFGGGTKLEIK")
589000
>>> observed_measurement("HC5 LC2 (antibody, V domains shown, IgG; also called VH5/VL2) VH: EVQLVQSGAEVKKPGESLKISCKGSGYTFTSYNMHWVRQMPGKGLEWMGVIYSGNADTSYNQKFKGQVTISADKSISTAYLQWSSLKASDTAMYYCARERDTRFGNWGQGTLVTVSA VL: DIVMTQSPSTLSASVGDRVTITCRASESVDIYGNSFMHWYQQKPGKAPKLLIYLASNLESGVPSRFSGSGSGTEFTLTISSLQPDDFATYYCQQNNEDPYTFGQGTKLEIK")
472000
>>> observed_measurement("Dom (antibody, V domains shown, IgG; also called VH3/VL1; HC3 LC1) VH: QVQLVQSGAEVRKPGASVKLSCKASGYTFTSYNMHWVRQAPGQGLEWMGVIYSGNGDTSYNQKFKGRVTLTRDTSTSTVYMELSSLRSEDTAVYYCARERDTRFGNWGQGTLVTVSA VL: EIVLTQSPSSLSASVGDRVTITCRASESVDIYGNSFMHWYQQKPGKAPKLLIYLASNLESGVPSRFSGSGSGTDFTLTISSLQPEDFATYYCQQNNEDPYTFGQGTKLEIK")
495000
>>> observed_measurement("HC3 LC5 (antibody, V domains shown, IgG; also called VH3/VL5) VH: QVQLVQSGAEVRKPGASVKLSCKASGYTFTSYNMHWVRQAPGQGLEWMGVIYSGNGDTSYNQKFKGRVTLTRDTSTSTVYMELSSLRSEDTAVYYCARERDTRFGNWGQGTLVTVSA VL: DIQMTQSPSSLSASVGDRVTITCRASESVDIYGNAFMHWYQQKPGKAPKLLIYLASNLESGVPSRFSGSGSGTDFTLTISSLQPEDFATYYCQQANEEPYTFGGGTKLEIK")
715000

stdin: For the binder HC2 LC3 (antibody, V domains shown, IgG; also called VH2/VL3) VH: QVQLVESGAEVKKPGASVKLSCKASGYTFTSYNMHWVRQAPGQRLEWMGVIYSGNGDTSYNQKFKGRVTITVDKSASTAYMELSSLRSEDTAVYYCARERDTRFGNWGQGTLVTVSA VL: DIVMTQSPSTLSASVGDRVTITCRASESVDIYGSSFMHWYQQKPGQPPKLLIYLASNLESGVPSRFSGSGSGTEFTLTISSLEADDVATYYCQQNNEDPYTFGGGTKLEIK , what kon is on record?
stdout: 571000
